Source: the nanobody polyreactivity screen of Harvey et al. (2022)

assay: yeast display, Sf9 membrane polyspecificity reagent, FACS + sequencing; frameworks hold sequencing errors
observation.type: polyreactivity (PSR sort gate)

QVQLVESGGGLVQAGGSLRLSCAASGNTFTFNAMGWYRQAPGKERELVAAINRGDSTNYADSVKGRFTISRDNAKNTVYLQMNSLKPEDTAVYYCAAGTLYWNYNRYDLYYYWGQGTQVTVSS :: high polyreactivity
QVQLVESGGGLVQAGGSLRLSCAASGRTFLSYAMGWYRPAPGKERELVAAIRWRTGSRTYYADSVKGRFTISRDNAKNKVYLQLNSLKPEDTAVYLCANTYWYPYGYWGQGTQVTLSS :: low polyreactivity
QVHLVESGGGLVQAGGSLRLTCAASGSIFTVYALGWYRQAPGKERELVAAITRNGGRTYYADSVKGRFTISRDNAKNTVYLQMNSLIPEDTAGYYCAAPGLYSRLDYWGQGTQVTVSS :: high polyreactivity
QVQLVESGGGLVQAGGSLRLSCAASGRTFVFNAMGWYRQAPGKERELVAAISARGGRTYYADSVKGRFTISRDNAKNTVYLQMNSLKPEDTAVYYCATVPYPNRKVGVDYWGQGTQVTVSS :: high polyreactivity
QVQLVESGGGLVQAGGSLRLSCPASASIFLSNMGWYRQAPGKERELVAAITIGGSTDYADSVKGRFTISRDNAKNTVYLQMNSLKPEDTAVYYCNADNPYSDGADSLGNYWGQGTQVTVSS :: low polyreactivity
QVQLVESGGGLVQAGGSLRLSCAASGSIFYYNAMGWYRQAPGKERELVAAISWSGDSTYYADSVKGRFTISRDNAKNTVYLQMNSLKPEDTAVYYCNTDLVPWTEYWYDYWGQGTQVTVSS :: low polyreactivity

Which value of polyreactivity (PSR sort gate) has been reported for "QVQLVESGGGLVQAGGSLRLSCAASGSIFTVYAMGWYRQAPGKERELVAAINWSDGDTYYADSVKGRFTISRDNAKNTVYLQMNSLKPEDTAVYYCAAEGIYLILWYGYVEYDYWGQGTQVTVSS" in the records?
low polyreactivity

Same lookup for "QVQLVESGGGLVQAGGSLRLRCAPSGSIFSAYAMGWYRQAPGKVREVVAGISKSGARTYYADSVKGRFTLSRDNAKNTVYLQMNRLKPEDTAVYYCAAVDYYLYYYWGQGTQVTVSS" , please.
high polyreactivity

Same lookup for "QVQLVESGGALVQAGGSLRLTCAASGRTFYYYAKGWYRPAPGTERELVAAISCSGGRTYYADSVKGRFTISRDNANDTVYVPMNSLKPEDTAVFYCYAEPPSGYTVSSGGEMDYWGQGTQVTVSS" , please.
low polyreactivity

Same lookup for "QVQLVESGGGLVQAGGSLRLSCAASGRIFGGYTMGWYRQAPGKERELVAAITGSGGRTYYADSVKGRFTISRDKAKNTVYLQMNSLKPDETAVYYCNTVYRYRYYWGQGTQVTVSS" , please.
high polyreactivity

Same lookup for "QVQLVESGGGLVQAGGSLRLSCAASGSSFSHNVMGWYRQAPRKERELVATINWSGGSTYYADSVKGRFTISRDNAKKSDYLQMNSLKPEDTAVYYCAADRQITVYAYDYWGQGTQVTVSS" , please.
low polyreactivity

Same lookup for "QVQLVESGVGLVQAGGSLRLCCAASGSTSKYYAMVWYRQSPGKERELVAAITWSDVSTYYADSVKGRFTISRDNAKNTVYLQMNSLKPADTAVYYCNAGYDYWGQGTQVTVSS" , please.
low polyreactivity

Same lookup for "QVQLVESGGGLVQAGGSLRLSCAASGRIFYVYAMGWYRQAPGKERELVATIDWSGGSTYYADSVKGRFTISRDNAKITVYLQMNSLKPEDTAVYYCAAYYTSYWGYDYDYWGQGTQVTVSS" , please.
low polyreactivity

Same lookup for "QVQLVESGGGLVQAGGSLRLSCAASGVNAMGWYRQAPGKEREIVAAITSIGGSTYYADSVKGRFTISRDNAKNTVSLQMNSLKPEDTAVYYCNTDRGPVKVSPLYESWGQGTQVTVSS" , please.
low polyreactivity
